# assay-info: Antagonist activity at PAR1 in human platelet-rich plasma assessed as reduction in thrombin-stimulated platelet aggregation preincubated for 3 mins followed by thrombin stimulation measured after 5 mins by aggregometric analysis
experimental-endpoint: pIC50
Notebook: values listed as pIC50 are -log10 of the concentration (mol/L).

INPUT: Tell me pIC50 reported for `CCOC(=O)N[C@@H]1CC[C@@H]2[C@@H](C1)C[C@H]1C(=O)O[C@H](C)[C@H]1[C@H]2C=Cc1ccc(-c2cccc(F)c2)cn1`
OUTPUT: 7.09
